System: MS2 coat protein
protocol text: apparent KD of MS2 coat protein; designed switch direction (-1 OFF switch, 1 ON switch): -1; higher = weaker reporter binding
test settings: Eterna round: R95; input ligand: microRNA oligo, concentration not stated
endpoint: apparent KD of MS2 coat protein (nM)
Give bare numbers, in nM.

Reference set (4 entries):
>>> measured_value("CUGGUCCGAGGAUAUAUGAUGUGAUACAUGAGGAUCACCCAUGUUAUAUUAUGGAUGUAAAUAGAAGGCGGACUAG [Mat - Exclusion 5 - JL mod - D71] (puzzle: Exclusion 5)")
72.2
>>> measured_value("CGAUGUUAUGUCAGGAUAUGCAUUGCGAAAGCAAUGCAGAAGGGACAUGAGGAUCACCCAUGUCCUAACCAUCG [Omei A 4] (puzzle: Brourd's mod of Exclusion 4)")
11.1
>>> measured_value("CGUACUAACACGAAAGUGUUAGUACAAUAAGCUUGUGAAACAUGAGGAUCACCCAUGUCCUCAUAAGCUCGUCUUAA [salish99_TOv2_r3_006] (puzzle: Sensor v3, turn-off variant 2)")
268
>>> measured_value("GGUACUAACACGAGAGUGUUAGUACUAUAAGCUUGUGUUACAUGAGGAUCACCCAUGUCCUCAUAAGCUCGUCUUGU [Mat - Sensor v3 - Turn-off var 2 - D88] (puzzle: Sensor v3, turn-off variant 2)")
54.8

# context switch: different sequence, same apparent KD of MS2 coat protein
Tested system MS2 coat protein; apparent KD of MS2 coat protein recorded for AGUGCGUAUGUGAGGAUAUGCUGGUCCUUGGAUCAGCAGAAGGCACAUGAGGAUCACCCAUGUGGUGUCGUACG [salish99_Bmod_Ex4_004] (puzzle: Brourd's mod of Exclusion 4) was 51.8
